Provenance of the data: patent US6680170B2

target: PAK5 (Homo sapiens); construct: made in house; host or cells: 293 cells (transient transfection, immunopurified on protein A sepharose) or bacteria (GST fusion); test: In vitro kinase assay, activation loop peptides as PAK5 substrates; format: biochemical; details: peptide substrates at 2.5 μM
Sequence (O96013 whole entry, the tested form may be a part): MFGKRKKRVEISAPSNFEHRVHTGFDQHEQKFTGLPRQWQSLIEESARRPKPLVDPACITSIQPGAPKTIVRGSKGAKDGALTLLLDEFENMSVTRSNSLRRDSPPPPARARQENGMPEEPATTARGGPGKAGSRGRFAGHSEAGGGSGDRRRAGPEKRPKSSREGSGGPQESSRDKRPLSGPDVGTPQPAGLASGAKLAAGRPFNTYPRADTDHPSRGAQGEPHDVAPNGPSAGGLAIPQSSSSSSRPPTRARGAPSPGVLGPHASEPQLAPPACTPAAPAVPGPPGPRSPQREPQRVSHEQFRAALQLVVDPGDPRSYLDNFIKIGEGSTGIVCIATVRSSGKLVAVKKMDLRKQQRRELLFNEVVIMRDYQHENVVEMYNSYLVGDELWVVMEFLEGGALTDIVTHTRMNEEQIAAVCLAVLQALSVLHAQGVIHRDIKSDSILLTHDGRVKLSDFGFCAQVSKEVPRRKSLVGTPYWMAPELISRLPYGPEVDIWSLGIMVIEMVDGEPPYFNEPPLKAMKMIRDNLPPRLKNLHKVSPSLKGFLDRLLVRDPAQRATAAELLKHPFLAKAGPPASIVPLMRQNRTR
Where no end group is shown, it is not given here.
property: substrate

Worked examples follow.
substance: (C) RRKSLVGTPYWMAPE [3] (CRRKSLVGTPYWMAPE; also: phosphorylated residue) [Peptide 3, phosphorylated residue marking not visible]
test.target: PAK5 (Homo sapiens)
property: substrate
observed.value: no
--
substance: (C) RRKSLVGTPYWMAPE [1] (CRRKSLVGTPYWMAPE; N-terminal cysteine) [Peptide 1]
test.target: PAK5 (Homo sapiens)
property: substrate
observed.value: yes
--
substance: KRNTFVGTPFWMAPE [Peptide 5]
test.target: PAK5 (Homo sapiens)
property: substrate
observed.value: poor
--
substance: PANSFVGTPYWMAPE [Peptide 6]
test.target: PAK5 (Homo sapiens)
property: substrate
observed.value: poor
--
substance: KRKSFIGTPYWMAPE [Peptide 4]
test.target: PAK5 (Homo sapiens)
property: substrate
observed.value: yes

Kindly note the recorded substrate for (C) RRKSLVGTPYWMAPE [2] (CRRKSLVGTPYWMAPE; also: phosphorylated residue) [Peptide 2, phosphorylated residue marking not visible] , which is yes

The recorded substrate for RRNTFIGTPYWMAPE [Peptide 7] is poor

response.value for RNKVRKTFVGTPCWMAPE [Peptide 9] (field: substrate) = poor
